assayTarget: native CB1 receptors (Rattus norvegicus, UniProt P20272)
Sequence (P20272 whole entry): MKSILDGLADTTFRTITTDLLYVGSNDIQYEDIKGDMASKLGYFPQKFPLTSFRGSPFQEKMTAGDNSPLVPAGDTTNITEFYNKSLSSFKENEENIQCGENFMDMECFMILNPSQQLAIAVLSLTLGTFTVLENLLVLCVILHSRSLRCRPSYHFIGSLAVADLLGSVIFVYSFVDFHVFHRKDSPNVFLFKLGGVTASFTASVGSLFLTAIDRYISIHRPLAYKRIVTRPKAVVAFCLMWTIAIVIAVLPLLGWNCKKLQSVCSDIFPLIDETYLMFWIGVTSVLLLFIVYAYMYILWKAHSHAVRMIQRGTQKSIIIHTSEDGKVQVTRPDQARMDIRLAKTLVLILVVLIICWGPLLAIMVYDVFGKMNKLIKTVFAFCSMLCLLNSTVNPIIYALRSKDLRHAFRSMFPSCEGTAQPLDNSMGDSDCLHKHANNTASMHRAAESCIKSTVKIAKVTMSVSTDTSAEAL
assayInfo: CB1 receptor rat binding assay ([3H]SR141716A, rat brain membranes)
conditionDescription: rat brain membranes, [3H]SR141716A
Just a reminder that ties go to no (0): only Binding rat Inh % strictly below 80% counts as yes (1).

The following compounds have reported results that may help.
COc1ccc(C2=Nc3cc(C(=O)NCc4cccnc4)ccc3Sc3ccccc32)cc1 [drawing 1438] :: yes (1)
CC(C)NC(=O)c1ccc2c(c1)N=C(c1ccc(Cl)s1)c1ccccc1S2 [drawing 1445] :: no (0)
O=C(NN1CCCCC1)c1ccc2c(c1)N=C(c1ccc(F)cn1)c1ccccc1S2 [drawing 1494] :: no (0)
O=C(NCc1cccnc1)c1ccc2c(c1)N=C(c1cccc(F)c1)c1ccccc1S2 [drawing 1221] :: no (0)
CCCCNC(=O)c1ccc2c(c1)N=C(c1ccc(Cl)c(Cl)c1)c1ccccc1S2 [drawing 1311] :: no (0)
O=C(NC1CCCCC1)c1ccc2c(c1)N=C(c1ccccn1)c1ccccc1S2 [drawing 1537] :: yes (1)

Please look at the following compound next.
Identify whether the compound CC(C)CNC(=O)c1ccc2c(c1)N=C(c1ccc(Cl)cn1)c1ccc(F)cc1S2 [drawing 1229] records Binding rat Inh % below 80%.
no (0)

Data origin, for the record: patent US20080090805A1
